Reference source for all entries: the supplement of paper PMC3937590

Test system: MCF10F
Experiment: -log10 GI50 (growth inhibition 50%) (-log10(M)); higher = more potent growth inhibition
observed-property: -log10 GI50

INSERT INTO assay_data (molecule_smiles, target_or_test_system, operator, result_number) VALUES
  ('COc1ccc(-c2cc3c(C)nc(N)nc3n([C@H]3CC[C@H](OCCO)CC3)c2=O)cn1', 'MCF10F', '=', 6.8),
  ('O=c1cc(-c2ccccc2)oc2cc(O)c(O)c(O)c12', 'MCF10F', '<', 3.78),
  ('C=CCNC1=C2C[C@@H](C)C[C@H](OC)[C@H](O)[C@@H](C)/C=C(\C)[C@H](OC(N)=O)[C@@H](OC)/C=C\C=C(/C)C(=O)NC(=CC1=O)C2=O', 'MCF10F', '=', 7.5),
  ('Oc1cc(-c2nc(-c3ccccc3)[nH]c2-c2ccncc2)ccc1Cl', 'MCF10F', '=', 4.92),
  ('C[C@@H](Oc1cc(-c2cnn(C3CCNCC3)c2)cnc1N)c1c(Cl)ccc(F)c1Cl', 'MCF10F', '=', 5.61),
  ('Nc1nc2[nH]cc(CCc3ccc(C(=O)N[C@@H](CCC(=O)O)C(=O)O)cc3)c2c(=O)[nH]1', 'MCF10F', '<', 2.53),
  ('O=c1[nH]cc(F)c(=O)[nH]1', 'MCF10F', '=', 5.37),
  ('N#Cc1c(-c2ccccc2)cc(-c2cc(Br)ccc2O)[nH]c1=O', 'MCF10F', '<', 3.88),
  ('CC(=O)O[C@@]12CO[C@@H]1C[C@H](O)[C@@]1(C)C(=O)[C@H](O)C3=C(C)[C@@H](OC(=O)[C@H](O)[C@@H](NC(=O)OC(C)(C)C)c4ccccc4)C[C@@](O)([C@@H](OC(=O)c4ccccc4)[C@H]21)C3(C)C', 'MCF10F', '=', 8.59),
  ('CC/C(=C(\c1ccccc1)c1ccc(OCCN(C)C)cc1)c1ccccc1', 'MCF10F', '<', 3.78),
  ('O=c1[nH]c2ccccc2n1C1CCN(Cc2ccc(-c3[nH]c4cc5ncnc5cc4nc3-c3ccccc3)cc2)CC1', 'MCF10F', '=', 5.42),
  ('COC(=O)Nc1nc2cc(C(=O)c3ccccc3)ccc2[nH]1', 'MCF10F', '=', 5.45),
  ('Nc1[nH]nc2nnc(-c3c(-c4ccccc4)nn4ccccc34)cc12', 'MCF10F', '=', 4.09),
  ('CNC(=O)c1c(F)cccc1Nc1nc(Nc2cc3c(cc2OC)CCN3C(=O)CN(C)C)nc2[nH]ccc12', 'MCF10F', '=', 6.31),
  ('CO[C@H]1C[C@@H]2CC[C@@H](C)[C@@](O)(O2)C(=O)C(=O)N2CCCC[C@H]2C(=O)O[C@H]([C@H](C)C[C@@H]2CC[C@@H](OCCO)[C@H](OC)C2)CC(=O)[C@H](C)/C=C(\C)[C@@H](O)[C@@H](OC)C(=O)[C@H](C)C[C@H](C)/C=C/C=C/C=C/1C', 'MCF10F', '=', 6);

---

Quick list: -log10 GI50 per entry.
Test system: SKBR3
Test: -log10 GI50 (growth inhibition 50%) (-log10(M)); higher = more potent growth inhibition
observed-property: -log10 GI50

INSERT INTO assay_data (molecule, operator, result_number) VALUES
  ('CN(Cc1cnc2nc(N)nc(N)c2n1)c1ccc(C(=O)N[C@@H](CCC(=O)O)C(=O)O)cc1 [Methotrexate]', '=', 6.28),
  ('COc1cccc(-c2cc(=O)c3ccccc3o2)c1N', '=', 4.73),
  ('CCN(CC)CCNC(=O)c1c(C)[nH]c(/C=C2\C(=O)Nc3ccc(F)cc32)c1C [Sunitinib malate]', '=', 5.17),
  ('Nc1[nH]nc2nnc(-c3c(-c4ccccc4)nn4ccccc34)cc12', '<', 4),
  ('Cn1ncc(Cl)c1-c1cc(C(=O)N[C@H](CN)Cc2ccc(F)c(F)c2)oc1Cl', '=', 6.93);
